Test system: KYSE-70 cell line;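 also: cell viability assay read-out, with IC50 expressing suppression of KYSE-70 cell growth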
Test: cells
Format: functional, cell-based, Homo sapiens
Settings: Homo sapiens, KYSE-70
Description: SANGER: Inhibition of human KYSE-70 cell growth in a cell viability assay.
Provide the recorded IC50 for the entries that follow.

May I ask what IC50 has been recorded for `CC(=O)O[C@@H]1[C@@H](OC(C)=O)[C@@H](O)[C@H](Oc2c(-c3ccc(O)cc3)oc3cc(O)cc(O)c3c2=O)O[C@H]1C` ?
> 10 µM

May I ask what IC50 has been recorded for O=C(c1cc(Cc2n[nH]c(=O)c3ccccc23)ccc1F)N1CCN(C(=O)C2CC2)CC1 [OLAPARIB] ?
> 5 µM

May I ask what IC50 has been recorded for COc1cc([C@@H]2c3cc4c(cc3[C@@H](O[C@@H]3O[C@@H]5CO[C@@H](C)O[C@H]5[C@H](O)[C@H]3O)[C@H]3COC(=O)[C@H]23)OCO4)cc(OC)c1O [ETOPOSIDE] ?
> 16 µM

May I ask what IC50 has been recorded for Nc1ccn([C@@H]2O[C@H](CO)[C@@H](O)[C@@H]2O)c(=O)n1 [CYTARABINE] ?
1.86 µM

====

Tested on: A498;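 also: growth inhibition of human A498 cells, read out with a cell viability assay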
Assay: cells
Assay type: functional, cell-based, Homo sapiens
Conditions: Homo sapiens, A498
Description: SANGER: Inhibition of human A498 cell growth in a cell viability assay.
pIC50: −log10 of the molar value.
measured quantity: pIC50

May I ask what pIC50 has been recorded for `CCc1nc(N)nc(N)c1-c1ccc(Cl)cc1` ?
< 4.70

May I ask what pIC50 has been recorded for CN(Cc1cnc2nc(N)nc(N)c2n1)c1ccc(C(=O)N[C@@H](CCC(=O)O)C(=O)O)cc1 [METHOTREXATE] ?
< 6.70

May I ask what pIC50 has been recorded for `C=CCc1cccc(/C=N/NC(=O)CN2CCN(Cc3ccccc3)CC2)c1O` ?
< 5.59

====

System: NCI-H1755;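 also: cell viability readout used to measure growth inhibition of NCI-H1755 cells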
Experiment: cells
Assay type: functional, cell-based, Homo sapiens
Conditions: Homo sapiens, NCI-H1755
Description: SANGER: Inhibition of human NCI-H1755 cell growth in a cell viability assay.
measured quantity: IC50

For NCI-H1755, provide IC50 of CN(c1ncccc1CNc1nc(Nc2ccc3c(c2)CC(=O)N3)ncc1C(F)(F)F)S(C)(=O)=O [PF-00562271] please.
> 2.56 µM

For NCI-H1755, provide IC50 of O=C(c1cc(Cc2n[nH]c(=O)c3ccccc23)ccc1F)N1CCN(C(=O)C2CC2)CC1 [OLAPARIB] please.
> 5 µM

For NCI-H1755, provide IC50 of `CC(=O)O[C@@H]1[C@@H](OC(C)=O)[C@@H](O)[C@H](Oc2c(-c3ccc(O)cc3)oc3cc(O)cc(O)c3c2=O)O[C@H]1C` please.
> 10 µM

====

System: AM-38;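 also: growth inhibition of AM-38 cells of human origin, read out by a cell viability assay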
Assay: cells
Assay type: functional, cell-based, Homo sapiens
Settings: Homo sapiens, AM-38
Description: SANGER: Inhibition of human AM-38 cell growth in a cell viability assay.
Provide the recorded IC50 for the entries that follow.

May I ask what IC50 has been recorded for `Nc1ccn([C@@H]2O[C@H](CO)[C@@H](O)[C@@H]2O)c(=O)n1` ?
1470 nM

May I ask what IC50 has been recorded for `O=C(NOCC1CC1)c1ccc(F)c(F)c1Nc1ccc(I)cc1Cl` ?
> 10000 nM

May I ask what IC50 has been recorded for `CCC(=O)N1CCN(c2ccc(-n3c(=O)ccc4cnc5ccc(-c6cnc7ccccc7c6)cc5c43)cc2C(F)(F)F)CC1` ?
> 1200 nM

May I ask what IC50 has been recorded for `CC(=O)O[C@@]12CO[C@@H]1C[C@H](O)[C@@]1(C)C(=O)[C@H](O)C3=C(C)[C@@H](OC(=O)[C@H](O)[C@@H](NC(=O)OC(C)(C)C)c4ccccc4)C[C@@](O)([C@@H](OC(=O)c4ccccc4)[C@H]21)C3(C)C` ?
> 10 nM

May I ask what IC50 has been recorded for `Cn1cc(C2=C(c3ccc(Cl)cc3Cl)C(=O)NC2=O)c2ccccc21` ?
> 10000 nM

May I ask what IC50 has been recorded for COc1cc([C@@H]2c3cc4c(cc3[C@@H](O[C@@H]3O[C@@H]5CO[C@@H](C)O[C@H]5[C@H](O)[C@H]3O)[C@H]3COC(=O)[C@H]23)OCO4)cc(OC)c1O [ETOPOSIDE] ?
3670 nM

All figures here come from ChEMBL document CHEMBL1201861.
